# maps each entry to its Population Mitotic Cells (%)
system: U2OS; assay: Multiplex assay against U2OS; format: toxicity, cell-based; details: human, 12 h, 1 µM, compound concentration 1 uM, replicate 1
assayMetric: Population Mitotic Cells (%)

- compound: "CCNC1(C(N)=O)CCN(c2ncnc3c2nc(-c2ccccc2Cl)n3-c2ccc(Cl)cc2)CC1"
  assaySystem: "U2OS"
  assayMetric: "Population Mitotic Cells (%)"
  displayUnit: "%"
  observedMeasurement: 22
- compound: "Cl.Clc1ccc2nsnc2c1NC1=NCCN1 [TIZANIDINE HYDROCHLORIDE]"
  assaySystem: "U2OS"
  assayMetric: "Population Mitotic Cells (%)"
  displayUnit: "%"
  observedMeasurement: 17
- compound: "Cc1nc2ccc(Oc3ccc(F)cc3)cc2c(=O)n1C[C@H]1CCCN(C(C)C)C1.Cl"
  assaySystem: "U2OS"
  assayMetric: "Population Mitotic Cells (%)"
  displayUnit: "%"
  observedMeasurement: 16
- compound: "CSc1ccccc1N1CCN(CCCCCC(=O)NC2CCCc3ccccc32)CC1.Cl (stereo not drawn)"
  assaySystem: "U2OS"
  assayMetric: "Population Mitotic Cells (%)"
  displayUnit: "%"
  observedMeasurement: 37
- compound: "Oc1c(CN2CCN(c3ccccn3)CC2)cc(Cl)c2cccnc12"
  assaySystem: "U2OS"
  assayMetric: "Population Mitotic Cells (%)"
  displayUnit: "%"
  observedMeasurement: 4
- compound: "COc1cc(C(=O)N(CCCc2ccccc2)Cc2ccc(CC(=O)O)cc2)cc(OC)c1C"
  assaySystem: "U2OS"
  assayMetric: "Population Mitotic Cells (%)"
  displayUnit: "%"
  observedMeasurement: 4
- compound: "CN1CCN(c2nc3cc(C(F)(F)F)ccc3n3cccc23)CC1.O=C(O)/C=C\\C(=O)O.O=C(O)/C=C\\C(=O)O"
  assaySystem: "U2OS"
  assayMetric: "Population Mitotic Cells (%)"
  displayUnit: "%"
  observedMeasurement: 22
- compound: "C[C@@H]1C[C@H]2[C@@H]3CCC4=CC(=O)C=C[C@]4(C)[C@@]3(F)[C@@H](O)C[C@]2(C)[C@@]1(O)C(=O)CO"
  assaySystem: "U2OS"
  assayMetric: "Population Mitotic Cells (%)"
  displayUnit: "%"
  observedMeasurement: 22

###

system: U2OS; assay: Multiplex assay against U2OS; type: toxicity, cell-based; conditions: human, 12 h, 10 µM, compound concentration 10 uM, replicate 1
assayMetric: Population Hoechst High Intensity Objects (%)

- molecule: "O=C(NCC(=O)N1CC[C@H](N[C@H]2CC[C@@](O)(c3ccc(-c4ncccn4)cn3)CC2)C1)c1cccc(C(F)(F)F)c1"
  observedMeasurement: "4%"
- molecule: "CC[C@H]1OC(=O)[C@H](C)[C@@H](O[C@H]2C[C@@](C)(OC)[C@@H](O)[C@H](C)O2)[C@H](C)[C@@H](O[C@@H]2O[C@H](C)C[C@H](N(C)C)[C@H]2O)[C@@]2(C)CC(C)=C(O2)[C@H](C)[C@@H](O)[C@]1(C)O"
  observedMeasurement: "7%"
- molecule: "Cc1ccccc1C(=O)Nc1ccc(C(=O)N2CCCC(N(C)C)c3ccccc32)cc1.Cl (stereo unspecified)"
  observedMeasurement: "4%"
- molecule: "Cc1nc2ccc(Oc3ccc(F)cc3)cc2c(=O)n1C[C@H]1CCCN(C(C)C)C1.Cl"
  observedMeasurement: "3%"
- molecule: "C[C@H]1[C@H]2CC[C@H]3[C@@H]4CC=C5C[C@@H](N(C)C)CC[C@]5(C)[C@H]4CC[C@]23CN1C"
  observedMeasurement: "2%"
- molecule: "Cc1ccc(F)cc1C(=O)Nc1ccc(C(=O)N2Cc3cccn3Cc3ccccc32)c(Cl)c1"
  observedMeasurement: "5%"
- molecule: "CNC[C@H](O)c1ccc(O)c(O)c1 [EPINEPHRINE]"
  observedMeasurement: "6%"
- molecule: "O=S(=O)(c1ccccc1)c1cnc2c(N3CCNCC3)cccc2c1 [INTEPIRDINE]"
  observedMeasurement: "3%"
- molecule: "Cl.Clc1ccc2nsnc2c1NC1=NCCN1 [TIZANIDINE HYDROCHLORIDE]"
  observedMeasurement: "2%"
- molecule: "N[C@@]1(C(=O)O)CO[C@H]2[C@H](C(=O)O)[C@H]21"
  observedMeasurement: "0%"
- molecule: "CN(C)CCCc1cc(C(=O)Nc2ccc(-c3ccncc3)cc2)ccc1O.Cl.Cl"
  observedMeasurement: "4%"
